src = ChEMBL document CHEMBL4616625

# TARGET: Alpha-1B adrenergic receptor (Homo sapiens, UniProt P35368)
# Sequence (P35368 whole entry): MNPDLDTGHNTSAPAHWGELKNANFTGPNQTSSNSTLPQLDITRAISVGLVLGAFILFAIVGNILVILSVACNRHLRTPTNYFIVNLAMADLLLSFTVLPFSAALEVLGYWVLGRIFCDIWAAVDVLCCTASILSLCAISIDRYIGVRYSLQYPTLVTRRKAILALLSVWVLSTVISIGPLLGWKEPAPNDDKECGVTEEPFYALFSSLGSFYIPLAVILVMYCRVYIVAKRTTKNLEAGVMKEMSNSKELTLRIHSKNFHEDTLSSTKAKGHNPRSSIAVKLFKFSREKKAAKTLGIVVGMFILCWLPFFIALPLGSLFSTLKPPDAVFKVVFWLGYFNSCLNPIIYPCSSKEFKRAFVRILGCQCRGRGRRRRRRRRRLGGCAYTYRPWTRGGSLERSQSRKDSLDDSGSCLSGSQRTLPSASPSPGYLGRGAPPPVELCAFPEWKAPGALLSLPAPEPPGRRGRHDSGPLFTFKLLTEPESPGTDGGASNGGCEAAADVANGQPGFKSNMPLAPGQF
pKi: −log10 of the molar value.
RESULT TYPE: pKi

>>> numeric_value("COc1ccc(-c2nc3ccccn3c2NCCN2CCOCC2)c(OC)c1")
5.70
